- Measured on: human ether-à-go-go-related gene (hERG) potassium channel (human, UniProt Q12809)
- Sequence (Q12809 whole entry, looked up): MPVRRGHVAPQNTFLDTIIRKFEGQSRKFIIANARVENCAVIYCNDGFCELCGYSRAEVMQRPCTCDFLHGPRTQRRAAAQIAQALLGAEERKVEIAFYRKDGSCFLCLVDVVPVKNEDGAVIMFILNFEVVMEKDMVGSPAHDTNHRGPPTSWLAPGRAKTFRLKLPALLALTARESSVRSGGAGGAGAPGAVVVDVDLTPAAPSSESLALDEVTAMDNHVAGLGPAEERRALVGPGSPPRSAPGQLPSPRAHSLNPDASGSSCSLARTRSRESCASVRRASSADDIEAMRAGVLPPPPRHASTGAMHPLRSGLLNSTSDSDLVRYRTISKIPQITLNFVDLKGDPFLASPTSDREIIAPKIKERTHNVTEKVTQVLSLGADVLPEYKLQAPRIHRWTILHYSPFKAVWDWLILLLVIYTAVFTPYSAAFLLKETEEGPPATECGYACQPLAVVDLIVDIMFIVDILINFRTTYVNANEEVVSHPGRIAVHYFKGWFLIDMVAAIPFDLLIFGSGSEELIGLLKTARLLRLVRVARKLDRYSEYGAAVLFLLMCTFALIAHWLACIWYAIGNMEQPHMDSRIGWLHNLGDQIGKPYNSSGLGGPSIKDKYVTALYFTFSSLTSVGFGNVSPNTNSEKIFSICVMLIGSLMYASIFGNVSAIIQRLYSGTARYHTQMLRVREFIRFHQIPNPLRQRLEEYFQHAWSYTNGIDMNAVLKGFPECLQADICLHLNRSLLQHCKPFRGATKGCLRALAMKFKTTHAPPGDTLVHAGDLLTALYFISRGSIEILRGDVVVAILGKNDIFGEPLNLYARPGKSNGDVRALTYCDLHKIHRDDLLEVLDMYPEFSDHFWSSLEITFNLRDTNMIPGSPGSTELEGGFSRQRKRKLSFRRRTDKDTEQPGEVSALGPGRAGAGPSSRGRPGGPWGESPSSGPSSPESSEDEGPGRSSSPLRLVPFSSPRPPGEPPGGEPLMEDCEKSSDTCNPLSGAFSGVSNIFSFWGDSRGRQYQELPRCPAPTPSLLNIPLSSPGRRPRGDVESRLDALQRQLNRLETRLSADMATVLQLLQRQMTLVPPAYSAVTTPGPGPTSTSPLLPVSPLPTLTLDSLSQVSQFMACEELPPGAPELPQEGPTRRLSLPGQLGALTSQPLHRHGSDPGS
- Assay info: primary screen, population patch clamp on CHO cells stably expressing hERG; higher = less effect of the substance;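 note: peak tail current of the secondary pulse compared with the same well before compound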
Among all 310,000 compounds or so, about 14,000 (4.5%) showed an effect of 50% or more. Effects have a minus sign here. The list comes from a sample in which strong results are over-represented; it also holds close analogues and randomly drawn compounds.
Reported hERG current change (%, negative = inhibition) at 10uM values follow for various compounds
Value kind: hERG current change (%, negative = inhibition) at 10uM (%)

# Compound, Numeric value
rows = [
    ("Cc1ccc(CN2CCCC(C(=O)N3CCCC3)C2)cc1.O=C(O)C(=O)O (stereo not shown)", -5.83),
    ("Cc1nc2cc(NS(=O)(=O)c3ccccc3)ccc2n1C", 9.21),
    ("CS(=O)(=O)N1CCC(Oc2cccc(C(=O)NCCCC3CCCC3)c2)CC1", -30.3),
    ("OC(COc1ccc2ccccc2c1Cl)CN1CCOCC1 (stereo not shown)", -24.5),
    ("O=C(c1ccc2c(c1)OCO2)C1CCCN(Cc2cccn2-c2cccnc2)C1 (stereo not shown)", -58.3),
    ("CC(C)N1C(=O)S/C(=C/c2cccnc2)C1=O", 8.88),
    ("Cc1ccc(N2CCN(CC(O)COc3cccc4ccccc34)CC2)cc1 (stereo not shown)", -25.1),
    ("CCN1CCN(C(=O)N2CCOCC2)CC1", 15.5),
    ("CC1(C)OC(=O)C(=CNc2cccc(C(=O)O)c2)C(=O)O1", 18.7),
    ("OC(COc1cccc2ccccc12)CN1CCCC1 (stereo not shown)", -29.4),
    ("CCOC(=O)C(=CNc1ccc2c(c1)nnn2-c1ccc(Cl)cc1)C(=O)OCC", -5.02),
    ("CCN(CC)C(=O)C(=O)N/N=C/c1ccc(F)cc1", 18.7),
    ("C/C(=N\\NC(N)=O)c1ccc(Cl)cc1", 6.12),
    ("Cc1cc(C)nc(OC(C(=O)O)C(OCCc2ccccc2)(c2ccccc2)c2ccccc2)n1 (stereo not shown)", 16.3),
    ("OC(COc1cccc2ccccc12)CN1CCN(c2ccccc2)CC1 (stereo not shown)", -33.2),
    ("Cc1ccc(C(=O)NCc2ccc(Cl)cc2)cc1S(=O)(=O)N1CCCCC1", -0.995),
    ("COc1ccccc1NC(=O)c1oc2ccc(C)cc2c1C", 14.1),
    ("CCCCCc1nnc(NC(=O)c2cccc(S(=O)(=O)N3CCOCC3)c2)s1", -41.8),
    ("CCOC(=O)c1ccc(NC(=O)CCCN2C(=O)NC3(CCCC3)C2=O)cc1", -3.62),
    ("COc1cc(C(=O)N/N=C(\\C)Cc2ccccc2)cc(OC)c1OC", 9.1),
    ("COc1ccc(NC(=S)N/C(=N/CS(=O)(=O)c2ccccc2)c2ccccc2)cc1", -53),
    ("COc1ccc(OC)c(/C=C/C(=O)N(C)CC(=O)Nc2ccc(N3CCOCC3)cc2)c1", -8.78),
    ("Cc1c(CCC(=O)O)c(=O)oc2cc(OCc3ccccc3F)ccc12", 27.4),
    ("COc1ccc(NC(=S)N/C(=N/S(=O)(=O)c2ccc(C)cc2)c2ccccc2)cc1", 21.2),
    ("COc1ccc(C(=O)C2CCCN(Cc3cccn3-c3nccs3)C2)cc1F (stereo not shown)", -83.5),
    ("CCCCCC(=O)N/N=C(\\C)c1ccc(Cl)cc1", 9.87),
    ("CCCCn1c(N)c(N(CCOC)C(=O)COC(=O)c2cc(CC)c(C)s2)c(=O)[nH]c1=O", 22),
    ("COC(=O)c1ccc(C)c(NC(=O)C2CC(=O)N(C3CCCC(C)C3C)C2)c1 (stereo not shown)", -11.5),
    ("Cc1cccc(CSc2nnc(CCNC(=O)OC(C)(C)C)o2)c1", -7.22),
    ("Cc1ccc(C(=O)Nc2c(C)n(C)n(-c3ccccc3)c2=O)cc1S(=O)(=O)N1CCOCC1", 0.249),
    ("O=c1n(Cc2ccc(Cl)cc2)c2sc3c(c2c2ncnn12)CCCC3", -39.1),
    ("COc1ccc(NC(=O)CC2(CC(=O)O)CCCC2)cn1", 16.7),
    ("COc1ccc(C(=O)C2CCCN(Cc3cnc(N4CCCC4)s3)C2)cc1OC (stereo not shown)", -44),
    ("CC(=O)NC(Cc1cc(C)ccc1C)C(=O)N1CCN(C(=O)c2ccc([N+](=O)[O-])cc2)CC1 (stereo not shown)", -30.2),
    ("CC1=C(C(=O)Nc2ccccc2)C(c2ccc(C)o2)n2c(s/c(=C/c3ccccc3)c2=O)=N1 (stereo not shown)", 18.1),
    ("CCCCC(O)(CCCC)C(=O)N/N=C(\\C)c1ccc(Cl)cc1", -66.9),
    ("Cc1cccc(N2C(=O)CC(NNc3nc4ccccc4s3)C2=O)c1 (stereo not shown)", 10.6),
    ("COc1ccccc1N1CCN(CC(O)c2ccc3cc[nH]c3c2)CC1 (stereo not shown)", -69.3),
    ("COc1ccc(C(=O)C2CCCN(Cc3cccn3-c3nccs3)C2)cc1OC (stereo not shown)", -82),
    ("COc1ccc(C(=O)C2CCCN(Cc3cccn3-c3cccnc3)C2)cc1OC (stereo not shown)", -62.9),
]
